test system: EKVX; assay: NCI tumour cell line growth inhibition, 48 h
Calls of active or inactive are those of the source. Cut-off read from the data, not from the text of the source: active = GI50 up to about 1.1 µM and inactive = higher.
readout: GI50

Cc1ccc(S(=O)(=O)C(CC(NC=O)S(=O)(=O)c2ccc(C)cc2)NC=O)cc1 (stereo not given) | > 100 µM (inactive)
C#CCOC(=O)C(N)CC(N)=O (stereo not given) | > 100 µM (inactive)
Cc1ccccc1C1OC(=O)c2ccccc21 (stereo not given) | > 100 µM (inactive)
C[C@H](CC[C@@H](O)C(C)(C)O)[C@H]1CC[C@@]2(C)[C@@H]3CC=C4[C@@H](CC[C@H](OC5OC(CO)C(O)C(O)C5O)C4(C)C)[C@]3(C)C(=O)C[C@]12C (stereo not given in full) | 80.4 µM (inactive)
CCN1C[C@]2(C)CC[C@H](OC)C34C1C([C@H](OC(C)=O)[C@@H]32)[C@@]1(OC)C[C@H](OC)[C@H]2C[C@@H]4[C@@H]1[C@H]2O | > 100 µM (inactive)
COc1cccc(Nc2nc(N)nc(N)c2N=O)c1 | 19.4 µM (inactive)
CCCCCC(O)[C@H]1C(=O)C[C@@H](O[Si](C)(C)C(C)(C)C)[C@@H]1/C=C/CCOCc1ccccc1 (stereo not given in full) | 17.4 µM (inactive)
CCOC(=O)c1c(N)sc2c1C(C(=O)OCC)CCC2 (stereo not given) | 55.8 µM (inactive)
CC1=Nc2ccccc2/C1=C\c1c(C)[nH]c2ccccc12 | 12.2 µM (inactive)

Please turn your attention to the following entry.
The value of GI50 measured for the compound "O=c1ssc2ncccc12" turned out to be 30.2 µM (inactive)
